# Experimental system: NR1A /2B (Rattus norvegicus, UniProt P35439+Q00960)
# Sequence (Q00960 27-1482, other chains not shown): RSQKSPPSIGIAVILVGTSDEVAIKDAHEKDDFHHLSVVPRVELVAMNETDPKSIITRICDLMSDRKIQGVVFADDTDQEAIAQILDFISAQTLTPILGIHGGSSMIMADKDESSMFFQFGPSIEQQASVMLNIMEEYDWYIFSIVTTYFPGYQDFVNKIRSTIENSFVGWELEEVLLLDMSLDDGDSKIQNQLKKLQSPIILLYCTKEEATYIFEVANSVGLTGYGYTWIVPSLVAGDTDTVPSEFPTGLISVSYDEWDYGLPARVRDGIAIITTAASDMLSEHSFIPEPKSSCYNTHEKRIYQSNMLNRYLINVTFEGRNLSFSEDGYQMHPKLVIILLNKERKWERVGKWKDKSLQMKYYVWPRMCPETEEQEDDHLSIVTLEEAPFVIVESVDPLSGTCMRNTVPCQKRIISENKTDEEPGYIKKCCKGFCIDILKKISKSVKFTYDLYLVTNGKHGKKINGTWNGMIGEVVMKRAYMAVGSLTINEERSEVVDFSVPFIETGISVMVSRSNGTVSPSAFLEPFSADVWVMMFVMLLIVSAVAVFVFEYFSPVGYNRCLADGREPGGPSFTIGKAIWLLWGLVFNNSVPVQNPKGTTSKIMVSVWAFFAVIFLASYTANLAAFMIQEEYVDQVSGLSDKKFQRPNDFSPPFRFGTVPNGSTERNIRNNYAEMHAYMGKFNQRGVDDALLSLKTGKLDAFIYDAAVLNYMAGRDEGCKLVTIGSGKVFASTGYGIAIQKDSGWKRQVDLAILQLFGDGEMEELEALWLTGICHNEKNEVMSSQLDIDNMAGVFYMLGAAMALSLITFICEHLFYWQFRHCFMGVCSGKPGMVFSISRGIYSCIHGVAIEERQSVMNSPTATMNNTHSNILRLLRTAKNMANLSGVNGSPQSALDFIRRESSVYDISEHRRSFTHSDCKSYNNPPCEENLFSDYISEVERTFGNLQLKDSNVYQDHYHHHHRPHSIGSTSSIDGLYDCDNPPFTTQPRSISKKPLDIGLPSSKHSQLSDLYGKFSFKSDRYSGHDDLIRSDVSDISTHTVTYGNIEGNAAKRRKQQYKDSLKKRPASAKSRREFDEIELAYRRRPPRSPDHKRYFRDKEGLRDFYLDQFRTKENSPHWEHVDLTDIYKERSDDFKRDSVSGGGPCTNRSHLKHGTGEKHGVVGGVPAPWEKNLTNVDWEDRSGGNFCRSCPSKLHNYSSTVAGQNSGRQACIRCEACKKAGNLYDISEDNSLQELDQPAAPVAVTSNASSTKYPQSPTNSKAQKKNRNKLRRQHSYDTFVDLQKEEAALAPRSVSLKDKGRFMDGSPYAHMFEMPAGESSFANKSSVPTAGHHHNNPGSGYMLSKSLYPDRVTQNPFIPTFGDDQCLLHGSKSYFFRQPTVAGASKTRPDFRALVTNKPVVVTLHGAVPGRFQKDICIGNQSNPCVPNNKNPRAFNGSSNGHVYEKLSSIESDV
# Run description: Electrophysiological assay at NMDA receptor subunits NR1A/2B expressed in Xenopus oocytes
# Run parameters: rat clones in Xenopus oocytes, currents activated by glutamate (100 μM) and glycine (1-100 μM)
pIC50: −log10 of the molar value.
// Not satisfied strictly below 7 in pIC50; Satisfied otherwise

Enquiry: Reported pIC50 at or above 7? O=c1[nH]c2ccc([S+]([O-])CCN3CCC(Cc4ccc(Cl)cc4Cl)CC3)cc2o1 (stereo not shown) [Example 15]
Return: Satisfied

Enquiry: Could you please find out whether O=c1[nH]c2ccc([S+]([O-])CCN3CCC(Cc4ccc(F)cc4F)CC3)cc2o1 (stereo not shown) [Example 12] has pIC50 that meets 7 or exceeds it?
Return: Satisfied

Enquiry: Is pIC50 at least 7? Consider O=c1[nH]c2ccc([S+]([O-])CCN3CCC(Cc4ccc(C(F)(F)F)cc4)CC3)cc2o1 (stereo not shown) [Example 13]
Return: Satisfied

Enquiry: Determine whether measured pIC50 meets or exceeds 7 for O=c1[nH]c2ccc([S+]([O-])CCN3CCC(O)(Cc4ccccc4)CC3)cc2o1 (stereo not shown) [Example 8]
Return: Not satisfied

Enquiry: pIC50 >= 7 for O=c1[nH]c2ccc([S+]([O-])CCN3CCC(Cc4ccc(F)cc4)CC3)cc2o1 (single isomer, unassigned; (+)) [Example 19] ?
Return: Satisfied

Enquiry: Decide: is the reported value of pIC50 for O=c1[nH]c2ccc([S+]([O-])CCN3CCC(Cc4c(F)cccc4F)CC3)cc2o1 (stereo not shown) [Example 14] equal to or greater than 7?
Return: Satisfied

Enquiry: Check this molecule for pIC50 at or above 7: Cc1ccc(CC2CCN(CC[S+]([O-])c3ccc4[nH]c(=O)oc4c3)CC2)cc1 (stereo not shown) [Example 3]
Return: Satisfied

Enquiry: Hi, just wondering whether O=c1[nH]c2ccc([S+]([O-])CCN3CCC(O)(Cc4ccc(F)cc4)CC3)cc2o1 (stereo not shown) [Example 9] shows pIC50 of 7 or higher.
Return: Not satisfied

Enquiry: // inclusive: pIC50 at least 7? input: CC(=O)Nc1ccc(CC2CCN(CC[S+]([O-])c3ccc4[nH]c(=O)oc4c3)CC2)cc1 (stereo not shown) [Example 16]
Return: Not satisfied

Enquiry: Has O=c1[nH]c2ccc([S+]([O-])CCN3CCC(Cc4ccc(Cl)cc4)CC3)cc2o1 (stereo not shown) [Example 2] a recorded pIC50 greater than or equal to 7?
Return: Satisfied

Enquiry: Please tell me: is the molecule O=c1[nH]c2ccc([S+]([O-])CCN3CCC(Cc4ccc(F)cc4)CC3)cc2o1 (stereo not shown) [Example 1] at or over 7 in terms of pIC50?
Return: Satisfied

Enquiry: Quick check: does O=c1[nH]c2ccc([S+]([O-])CCN3CCC(Cc4cccc(F)c4F)CC3)cc2o1 (stereo not shown) [Example 11] have pIC50 greater than or equal to 7?
Return: Satisfied

* * *

# System: 6-Hydroxydopamine-lesioned rats
# Run description: 6-OHDA Rat Assay: potentiation of contraversive rotation induced by L-DOPA methyl ester
# Type: in vivo, Sprague-Dawley rats
# Run parameters: po; L-DOPA methyl ester 10 mg/kg SC; total contraversive rotations over 6 hour vs L-DOPA only
6-OHDA rat MED (minimum effective dose): recorded values

Lab book: 6-OHDA rat MED (minimum effective dose) of O=c1[nH]c2ccc([S+]([O-])CCN3CCC(Cc4ccc(F)cc4)CC3)cc2o1 (single isomer, unassigned; (+)) [Example 19] noted as 1 mg/kg

Form field 6-OHDA rat MED (minimum effective dose), entry O=c1[nH]c2ccc([S+]([O-])CCN3CCC(Cc4ccc(F)cc4)CC3)cc2o1 (single isomer, unassigned; (-)) [Example 20] : 30 mg/kg

Query O=c1[nH]c2ccc([S+]([O-])CCN3CCC(Cc4ccc(Cl)c(Cl)c4)CC3)cc2o1 (centres unmarked) yields 6-OHDA rat MED (minimum effective dose) of > 10 mg/kg

Per the records, this molecule ( O=c1[nH]c2cc(Cl)c([S+]([O-])CCN3CCC(Cc4ccccc4)CC3)cc2o1 (centres unmarked) ) has 6-OHDA rat MED (minimum effective dose) equal to > 10 mg/kg

For this molecule ( O=c1[nH]c2cc(Cl)c([S+]([O-])CCN3CCC(Cc4ccc(F)cc4)CC3)cc2o1 (centres unmarked) ), measured 6-OHDA rat MED (minimum effective dose) is > 10 mg/kg

// field: 6-OHDA rat MED (minimum effective dose); key: O=c1[nH]c2ccc([S+]([O-])CCN3CCC(Cc4ccc(F)cc4F)CC3)cc2o1 (centres unmarked) ; value = 10 mg/kg

Per the records, this molecule ( O=c1[nH]c2ccc([S+]([O-])CCN3CCC(Cc4ccc(C(F)(F)F)cc4)CC3)cc2o1 (centres unmarked) ) has 6-OHDA rat MED (minimum effective dose) equal to 10 mg/kg

// 6-OHDA rat MED (minimum effective dose) value for O=c1[nH]c2ccc([S+]([O-])CCN3CCC(Cc4cccc(F)c4F)CC3)cc2o1 (centres unmarked) : 10 mg/kg

* * *

# Experimental system: NR1A /2C (Rattus norvegicus, UniProt P35439+Q00961)
# Construct: expressed in transfected cells; host or cells: Xenopus laevis oocytes (cRNA micro-injection)
# Sequence (Q00961 20-1237, other chains not shown): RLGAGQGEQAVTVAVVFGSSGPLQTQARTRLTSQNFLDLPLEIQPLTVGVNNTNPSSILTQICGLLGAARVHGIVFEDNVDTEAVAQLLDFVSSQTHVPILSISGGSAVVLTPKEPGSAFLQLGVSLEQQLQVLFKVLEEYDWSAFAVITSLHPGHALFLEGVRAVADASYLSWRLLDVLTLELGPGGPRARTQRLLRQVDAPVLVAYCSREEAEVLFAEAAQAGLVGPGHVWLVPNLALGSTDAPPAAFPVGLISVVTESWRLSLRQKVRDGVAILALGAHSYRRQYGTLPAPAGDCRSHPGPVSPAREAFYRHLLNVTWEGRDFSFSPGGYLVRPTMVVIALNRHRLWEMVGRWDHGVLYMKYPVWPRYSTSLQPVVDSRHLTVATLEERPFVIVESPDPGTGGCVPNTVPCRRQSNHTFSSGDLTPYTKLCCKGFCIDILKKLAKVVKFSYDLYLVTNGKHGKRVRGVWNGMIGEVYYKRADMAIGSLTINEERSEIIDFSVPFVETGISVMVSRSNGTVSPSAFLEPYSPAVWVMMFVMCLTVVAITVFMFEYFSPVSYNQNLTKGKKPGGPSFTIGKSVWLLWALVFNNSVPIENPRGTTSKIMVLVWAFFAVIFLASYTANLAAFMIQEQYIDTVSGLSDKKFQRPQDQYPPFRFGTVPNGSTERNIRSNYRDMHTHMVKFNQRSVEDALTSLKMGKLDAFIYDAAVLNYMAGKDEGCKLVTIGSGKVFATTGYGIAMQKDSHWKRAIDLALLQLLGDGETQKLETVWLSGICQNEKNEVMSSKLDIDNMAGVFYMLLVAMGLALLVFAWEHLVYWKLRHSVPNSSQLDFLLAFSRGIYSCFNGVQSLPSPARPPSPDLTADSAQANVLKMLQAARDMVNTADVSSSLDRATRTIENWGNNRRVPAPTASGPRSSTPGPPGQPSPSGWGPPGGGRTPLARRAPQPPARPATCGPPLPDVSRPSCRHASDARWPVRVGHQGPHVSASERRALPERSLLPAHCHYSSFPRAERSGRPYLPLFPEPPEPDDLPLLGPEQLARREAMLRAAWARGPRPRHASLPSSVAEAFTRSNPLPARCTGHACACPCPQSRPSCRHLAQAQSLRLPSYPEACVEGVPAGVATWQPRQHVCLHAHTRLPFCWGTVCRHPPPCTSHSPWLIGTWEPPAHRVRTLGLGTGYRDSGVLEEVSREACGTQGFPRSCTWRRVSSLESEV
# Run description: Electrophysiological assay at NMDA receptor subunits NR1A/2C expressed in Xenopus oocytes
# Format: cell-based
# Run parameters: rat clones in Xenopus oocytes, currents activated by glutamate (100 μM) and glycine (1-100 μM)
// IC50 lookup, one value per entry
Use µM as the unit, but write only the number.

Example entries begin here.
In [3]: df
Out[3]:
                                   compound  measured_property  obs_value
0  O=c1[nH]c2ccc([S+]([O-])CCN3CCC(Cc4ccc(Cl)cc4Cl)CC3)cc2o1 (stereo not drawn)               IC50        150
1  O=c1[nH]c2ccc([S+]([O-])CCN3CCC(Cc4c(F)cccc4F)CC3)cc2o1 (stereo not drawn)               IC50        160
2  O=c1[nH]c2ccc([S+]([O-])CCN3CCC(O)(Cc4ccccc4)CC3)cc2o1 (stereo not drawn)               IC50        230
3  O=c1[nH]c2ccc([S+]([O-])CCN3CCC(Cc4ccc(C(F)(F)F)cc4)CC3)cc2o1 (stereo not drawn)               IC50        150

Field IC50 (entry O=c1[nH]c2ccc([S+]([O-])CCN3CCC(Cc4ccc(Cl)c(Cl)c4)CC3)cc2o1 (stereo not drawn) ) reads 80

* * *

# 6-OHDA rat MED (minimum effective dose) per record follows
# System: 6-Hydroxydopamine-lesioned rats
# Run description: 6-OHDA Rat Assay: potentiation of contraversive rotation induced by L-DOPA methyl ester
# Assay type: in vivo, Sprague-Dawley rats
# Run parameters: po; L-DOPA methyl ester 10 mg/kg SC; total contraversive rotations over 6 hour vs L-DOPA only

>>> df
                                   compound   obs_value
0  COc1ccc(CC2CCN(CC[S+]([O-])c3ccc4[nH]c(=O)oc4c3)CC2)cc1 (stereo not drawn) [Example 5]  > 10 mg/kg

Field 6-OHDA rat MED (minimum effective dose) (entry O=c1[nH]c2ccc([S+]([O-])CCN3CCC(Cc4c(F)cccc4F)CC3)cc2o1 (stereo not drawn) [Example 14] ) reads > 10 mg/kg

# 6-OHDA rat MED (minimum effective dose) of O=c1[nH]c2ccc([S+]([O-])CCN3CCC(O)(Cc4ccc(F)cc4)CC3)cc2o1 (stereo not drawn) [Example 9] = > 10 mg/kg

* * *

# Experimental system: NRIA /2A (Rattus norvegicus, UniProt P35439+Q00959)
# Sequence (Q00959 23-1464, other chains not shown): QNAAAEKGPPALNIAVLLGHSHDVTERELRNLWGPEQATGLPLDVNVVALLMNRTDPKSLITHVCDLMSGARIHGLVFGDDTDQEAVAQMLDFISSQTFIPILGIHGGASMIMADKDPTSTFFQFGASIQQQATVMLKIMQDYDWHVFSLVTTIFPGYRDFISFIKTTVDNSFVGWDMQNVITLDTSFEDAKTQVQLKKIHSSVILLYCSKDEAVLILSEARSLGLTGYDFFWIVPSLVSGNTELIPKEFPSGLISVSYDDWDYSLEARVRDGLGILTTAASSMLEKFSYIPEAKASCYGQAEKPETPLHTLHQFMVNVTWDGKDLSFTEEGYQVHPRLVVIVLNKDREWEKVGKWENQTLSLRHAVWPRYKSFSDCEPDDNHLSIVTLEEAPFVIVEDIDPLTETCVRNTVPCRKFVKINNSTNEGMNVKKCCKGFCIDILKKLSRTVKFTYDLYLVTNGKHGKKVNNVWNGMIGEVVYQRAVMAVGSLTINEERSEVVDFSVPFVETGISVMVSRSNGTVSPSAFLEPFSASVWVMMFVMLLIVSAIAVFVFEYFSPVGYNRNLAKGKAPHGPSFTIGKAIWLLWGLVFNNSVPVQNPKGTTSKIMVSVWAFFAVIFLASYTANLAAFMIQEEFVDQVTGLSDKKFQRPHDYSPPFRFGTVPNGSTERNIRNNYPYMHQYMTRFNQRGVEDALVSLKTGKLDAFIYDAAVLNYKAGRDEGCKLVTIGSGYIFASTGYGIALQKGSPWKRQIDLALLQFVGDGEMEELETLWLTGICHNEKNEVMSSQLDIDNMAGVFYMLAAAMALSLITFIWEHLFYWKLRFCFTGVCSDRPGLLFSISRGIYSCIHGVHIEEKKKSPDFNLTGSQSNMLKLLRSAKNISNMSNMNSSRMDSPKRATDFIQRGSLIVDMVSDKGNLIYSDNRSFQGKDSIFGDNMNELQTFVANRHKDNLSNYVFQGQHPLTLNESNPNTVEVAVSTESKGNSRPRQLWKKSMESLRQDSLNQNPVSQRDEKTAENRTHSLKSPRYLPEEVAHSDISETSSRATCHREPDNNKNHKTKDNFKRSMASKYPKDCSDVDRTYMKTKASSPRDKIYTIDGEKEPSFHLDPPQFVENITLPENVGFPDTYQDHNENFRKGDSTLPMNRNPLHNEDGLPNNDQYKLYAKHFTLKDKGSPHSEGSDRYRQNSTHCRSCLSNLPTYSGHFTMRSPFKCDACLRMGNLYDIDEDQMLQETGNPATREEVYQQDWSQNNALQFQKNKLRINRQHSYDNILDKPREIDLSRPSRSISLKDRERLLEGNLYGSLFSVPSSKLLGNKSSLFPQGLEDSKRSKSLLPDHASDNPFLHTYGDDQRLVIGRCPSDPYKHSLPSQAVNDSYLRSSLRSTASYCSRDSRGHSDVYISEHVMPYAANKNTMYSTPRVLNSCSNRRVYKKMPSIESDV
# Run description: Electrophysiological assay at NMDA receptor subunits NR1A/2A expressed in Xenopus oocytes
# Run parameters: rat clones in Xenopus oocytes, currents activated by glutamate (100 μM) and glycine (1-100 μM)
Measured property: IC50 (µM)
Just the number please, in µM, no unit attached.

                                   compound                       experimental_system  obs_value
0  O=c1[nH]c2cc(Cl)c([S+]([O-])CCN3CCC(Cc4ccccc4)CC3)cc2o1 (centres unmarked)  NRIA /2A (Rattus norvegicus, UniProt P35439+Q00959)         40

The measured IC50 that O=c1[nH]c2ccc([S+]([O-])CCN3CCC(O)(Cc4ccccc4)CC3)cc2o1 (centres unmarked) showed for NRIA /2A (Rattus norvegicus, UniProt P35439+Q00959) is 40

* * *

# Experimental system: NR1A /2B (Rattus norvegicus, UniProt P35439+Q00960)
# Run description: Electrophysiological assay at NMDA receptor subunits NR1A/2B expressed in Xenopus oocytes
# Run parameters: rat clones in Xenopus oocytes, currents activated by glutamate (100 μM) and glycine (1-100 μM)
Measured property: pIC50
Hey, just a heads up that pIC50 is the negative log base 10 of the concentration in molar.

Some compounds with recorded pIC50:
>>> df
                                   compound  obs_value
0  O=c1[nH]c2ccc([S+]([O-])CCN3CCC(Cc4ccc(Cl)c(Cl)c4)CC3)cc2o1 (stereo not shown)       7.00
1  O=c1[nH]c2cc(Cl)c([S+]([O-])CCN3CCC(Cc4ccccc4)CC3)cc2o1 (stereo not shown)       6.80
2  O=c1[nH]c2cc(Cl)c([S+]([O-])CCN3CCC(Cc4ccc(F)cc4)CC3)cc2o1 (stereo not shown)       6.96

Consider the record given below.
NR1A /2B (Rattus norvegicus, UniProt P35439+Q00960) pIC50 of O=c1[nH]c2ccc([S+]([O-])CCN3CCC(Cc4ccccc4F)CC3)cc2o1 (stereo not shown) is 7.05
